Data origin, for the record: PubChem BioAssay (NCI)

growth inhibition reference
Assay: NCI Yeast Anticancer Drug Screen. Data for the mlh1 rad18 strain (AID 175)
Settings: S. cerevisiae mlh1 rad18 strain growth inhibition; at 50.0 µM; stronger effect = higher value
About 79,000 compounds went through this panel and 15% of them were active in at least one assay; those are over-represented in the sample as a whole.
Lab book: enter the figure in %, no units written.

Example entries and their recorded answers appear below.
[
  {
    "MOLECULE": "S=C(Nc1ccccc1)N1CCN(c2ccccc2Cl)CC1",
    "RECORDED METRIC": "growth inhibition",
    "SCALE UNIT": "%",
    "MEAS VALUE": 13.1
  },
  {
    "MOLECULE": "Cc1nc(-c2ccccc2)oc1-c1ccccc1",
    "RECORDED METRIC": "growth inhibition",
    "SCALE UNIT": "%",
    "MEAS VALUE": -4.35
  },
  {
    "MOLECULE": "O=C1CN(c2ccc(Cl)cc2)C(=O)CN1CCN1CC(=O)N(c2ccc(Cl)cc2)CC1=O",
    "RECORDED METRIC": "growth inhibition",
    "SCALE UNIT": "%",
    "MEAS VALUE": -23.6
  },
  {
    "MOLECULE": "CC(C)c1ccc(C(=O)OCCBr)cc1",
    "RECORDED METRIC": "growth inhibition",
    "SCALE UNIT": "%",
    "MEAS VALUE": 1.25
  },
  {
    "MOLECULE": "O=c1[nH]c(=O)c2nc3cc(-c4ccc5nc6[nH]c(=O)[nH]c(=O)c6nc5c4)ccc3nc2[nH]1",
    "RECORDED METRIC": "growth inhibition",
    "SCALE UNIT": "%",
    "MEAS VALUE": 7
  }
]

Query: Which growth inhibition is reported for this molecule? O=C(Cc1ccccc1)N(c1ccccc1)c1ccccc1
Result: 5.9

Query: Which growth inhibition is reported for this molecule? CC(=O)OCC1OC(n2cc(F)c(=O)[nH]c2=O)C(OC(C)=O)C1OC(C)=O (stereo not given)
Result: -26.4

====

Test: NCI Yeast Anticancer Drug Screen. Data for the bub3 strain (AID 167)
Settings: S. cerevisiae bub3 mutant strain, at 50.0 µM, stronger effect = higher value
This is part of a sample that, as a whole, favours compounds with a hit. Of some 79,000 tested, about 15% had one in any assay.
growth inhibition reference
Lab book: enter the figure in %, no units written.

Example entries and their recorded answers appear below.
[
  {
    "MOLECULE": "CCOC(=O)c1nnc2cc(-c3ccccc3)nn2c1C",
    "growth inhibition [%]": 41.4
  },
  {
    "MOLECULE": "CCOC(=O)CNC(=O)CNC(=O)CNC(=O)CN",
    "growth inhibition [%]": -3.85
  },
  {
    "MOLECULE": "N#Cc1ccc(NN=NCCCCCCl)cc1",
    "growth inhibition [%]": 15.8
  },
  {
    "MOLECULE": "CC12C=CC(=O)C=C1CCC1C3CC(F)C(O)(C(=O)CO)C3(C)CC(O)C12F (centres undefined)",
    "growth inhibition [%]": 14.8
  }
]

Query: Which growth inhibition is reported for this molecule? CCC(c1ccc(C(C)=O)c(O)c1)C(CC)c1ccc(C(C)=O)c(O)c1 (centres undefined)
Result: 2.8

Query: Which growth inhibition is reported for this molecule? CC(NS(=O)(=O)c1ccccc1)C(N)=O (centres undefined)
Result: 6.95

Query: Which growth inhibition is reported for this molecule? N/N=C(/CC(O)(C(F)(F)F)C(F)(F)F)c1ccccc1
Result: 3

Query: Which growth inhibition is reported for this molecule? CCOP(=O)(OCC)C(F)(F)Cc1cnc(C)c2c1COC(C)(C)O2
Result: 17.9

Query: Which growth inhibition is reported for this molecule? O=C1c2cccnc2C(=O)C2CC3=C(CCCC3)CC12 (centres undefined)
Result: 97.4

Query: Which growth inhibition is reported for this molecule? O=C1CCC=Cc2c(O)ccc(O)c21
Result: -1.1

Query: Which growth inhibition is reported for this molecule? O=S(=O)(O)c1cc(S(=O)(=O)O)c2c(N=Nc3cccc4ccccc34)c(O)ccc2c1
Result: -35.9

Query: Which growth inhibition is reported for this molecule? O=C(Nc1ccc(Cl)cc1C(=O)O)c1ccc([N+](=O)[O-])cc1
Result: 23.9

Query: Which growth inhibition is reported for this molecule? CCCCCCCCCCCCCCCO
Result: -7.25

Query: Which growth inhibition is reported for this molecule? O=c1oc2ccccc2c2ccccc12
Result: 1.25

Query: Which growth inhibition is reported for this molecule? CC1OCC2OC(C)OC(C(C3C(=O)CC(C)(C)CC3=O)C3C(=O)CC(C)(C)CC3=O)C2O1 (centres undefined)
Result: 26.2

Query: Which growth inhibition is reported for this molecule? COc1cc(C(c2ccc3c(c2)OCO3)N2C(=O)CCC2C(=O)O)cc(OC)c1OC (centres undefined)
Result: -7.8

Query: Which growth inhibition is reported for this molecule? CCOc1nc2c(c(=O)n(C)c(=O)n2C)n1C
Result: 7.65

Query: Which growth inhibition is reported for this molecule? CCOC(=O)/C(C#N)=N/Nc1ccc(S(=O)(=O)NC(C)=O)cc1
Result: -2.95
